- run.description: chemical genetic growth profiling, strain panel (AID 1159580);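 note: tested at 20 µM; growth read once vehicle control cultures reached saturation at 30 °C; 1 = growth at the plate median or of vehicle wells; lower values mean less growth of the strain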
- reported.conditions: S. cerevisiae deletion strains, growth OD, locus YJL166W, strain qcr8, active compounds read low
Screen size: about 5,500 compounds; about 2,000 (36%) were called active. Roughly 18% stayed inconclusive and do not appear here. The list shows a part of the results.
observed.property: normalized growth

>>> reported_result("CC(=O)[C@@]1(O)CCC2C3CCC4=CC(=O)CC[C@]4(C)C3CC[C@@]21C (some centres not stated)")
0.998
>>> reported_result("NC(=O)N1c2ccccc2C=Cc2ccccc21")
1.02
>>> reported_result("CC(=O)OCC(=O)[C@@]12OC3(CCCC3)O[C@@H]1CC1C3CCC4=CC(=O)C=C[C@]4(C)[C@@]3(F)[C@@H](O)C[C@@]12C (some centres not stated)")
1.02
>>> reported_result("O=C(CCc1ccc(O)cc1)c1c(O)cc(O)cc1O[C@@H]1O[C@H](CO)[C@@H](O)[C@H](O)[C@H]1O")
1.02
>>> reported_result("C=C(C)[C@@H]1CC[C@]2(CO)CC[C@]3(C)[C@H](CCC4[C@@]5(C)CC[C@H](O)C(C)(C)C5CC[C@]43C)C12 (some centres not stated)")
1.01
>>> reported_result("CO[C@H]1C[C@H](O[C@H]2[C@H](C)[C@@H](OC3O[C@H](C)C[C@H](N(C)C)[C@H]3OC(C)=O)[C@@H](C)C[C@]3(CO3)C(=O)[C@H](C)[C@@H](OC(C)=O)[C@@H](C)[C@@H](C)OC(=O)[C@@H]2C)O[C@@H](C)[C@@H]1OC(C)=O (some centres not stated)")
1
>>> reported_result("CN1C(=O)CCS(=O)(=O)C1c1ccc(Cl)cc1 (configuration not stated)")
0.943
